tested on: G-clamp-N3 (biotin conjugate); test: pull-down binding Z-score (relative to library population); higher = stronger binding; conditions: RNA library: Library-1 (pre-miRNA loops + repeats)
Kindly supply the reported pull-down binding Z-score values for the records listed here.

Sample UGGCAAUUCAGUAAAAAUGCUCA [hsa-mir-6715b] ; pull-down binding Z-score observed: -0.751

Kindly note the recorded pull-down binding Z-score for UUUGCCAUUACUUUCAGUGGCAAA [hsa-mir-548aq] , which is 0.135

Notebook: UUUCUGUUGUCUAAAAGAAAAGAAA [hsa-mir-527] , pull-down binding Z-score read as 0.0533

Entry AAAUAGUUUCUAUCAAAAUAGUUU [hsa-mir-3668] — recorded pull-down binding Z-score = -1.13

pull-down binding Z-score recorded for this sequence, UGCUUCAGUUUCACUCCAAGCA [hsa-mir-4771-2_4771-1] , is -0.932

Noted for GGCAGGUGCCUCCGUGUUGCCGAACCCUCCU [hsa-mir-6761] : its pull-down binding Z-score reads -0.447

###

system: TO-3-N3 (biotin conjugate); assay: pull-down binding Z-score (relative to library population); higher = stronger binding; details: RNA library: Library-2
PARAMETER: pull-down binding Z-score
Enter a number only.

pull-down binding Z-score in this record for GUUUGCCUGUUAAUGAAUUCAAAC [hsa-mir-3129] : 0.445

Sample CAGACAAUAUAGCUGAGUUUGUCUG [hsa-mir-215] ; pull-down binding Z-score observed: -0.801

Form field pull-down binding Z-score, entry UUGUUCGUUGCAUUUUUAGGAACAA [hsa-mir-3613] : -1.11

Record CGCUGCUGGCUGCCUUCCAGCG [hsa-mir-4533] . Reported pull-down binding Z-score: 0.221

pull-down binding Z-score reported for this sequence UAGGGCGCGGAGGGCGGACCGGGAA [hsa-mir-638] : 5.36

Notebook: GUUAGUUGUGGACACAUACUAAC [hsa-mir-3912] , pull-down binding Z-score read as -0.764

Note to self: pull-down binding Z-score recorded for CGGUACCCACUGCUGAGGGUGGGGACCA [hsa-mir-3691] was 0.628

For record AACAGCAGGAUUGGCUGUAGCUGUU [hsa-mir-2117] the listed pull-down binding Z-score is 0.357

Noted for AUGAACCACAAAUCAU [DMSMaPseq_invitro_SARS-CoV-2_Motif_444] : its pull-down binding Z-score reads 0.463

So, UCCACCUAGACGGGCCUGGGUCAA [hsa-mir-4698] ? Its pull-down binding Z-score was 0.349

Entry UCCUCCACAAAUGCGUGUGGAGGA [hsa-mir-4633] — recorded pull-down binding Z-score = -0.89

###

tested on: TO-3-N3-2 (biotin conjugate); experiment: pull-down binding Z-score (relative to library population); higher = stronger binding; conditions: RNA library: Library-2
Cut-off -0.2 on pull-down binding Z-score, inclusive. At or above means Criterion met; below means Criterion not met.

// inclusive: pull-down binding Z-score at least -0.2? input: CACUCUCCCUAAUGGGGCUGAAGACAGCUCAGGGGCAGGGUG [hsa-mir-4472-1] Criterion not met

Confirm if pull-down binding Z-score reported for the sequence "CCUUACCCAGAUCCAUCAAGAAUCCUAGGGGCCGG" is -0.2 or above. Criterion met

Would you say GACGACUACUAGCGUGCCUUUGUAAGCACAAGCUGAUGAGUACGAACUUAUGUACUCAUUCGUU [SHAPE_invivo_SARS-CoV-2_Multi_65_ComplexLevel_1] shows pull-down binding Z-score at minimum -0.2? Criterion met

In plain terms: is recorded pull-down binding Z-score at least -0.2 for AACAACAGCAUCAGAAGCAACAUCAGCUUUAGUU [hsa-mir-569] ? Criterion met

Reported pull-down binding Z-score at or above -0.2? "UAUUAUUGCUAUGUCUGCUUUUGCAAUGAUG" Criterion not met

Is pull-down binding Z-score for UGUGUGUACUCACAGCCCCUCACACA [hsa-mir-942] at or above -0.2? Criterion not met

Test whether the sequence UCCAGGAUCUGGGUUUUGAGGUCUUGG [hsa-mir-4309] records pull-down binding Z-score of -0.2 or higher. Criterion met

Answer whether pull-down binding Z-score of "UUACACCACUGGGCAUUGAUUUAGAUGAGUGGAGUAUGGCUACAUACUACUUAUUUGAUGAGUCUGGUGAGUUUAA" is greater than or equal to -0.2. Criterion not met

Please tell me: is the sequence UCGAGAGGUCAGAGGAUUGCUCCUGA [hsa-mir-5585] at or over -0.2 in terms of pull-down binding Z-score? Criterion not met

Is reported pull-down binding Z-score greater than or equal to -0.2 here: UUCUCGAGUCUAUGGCUCCGGCCGAGAG [hsa-mir-219a-1] Criterion met

Decide: pull-down binding Z-score of CUGCCAUUGAAAGUAAAGGCAA [hsa-mir-548ag-2] >= -0.2? Criterion met

Please indicate if the recorded pull-down binding Z-score for GGUUUCUUAAAAUGGAAUCU [hsa-mir-1255b-1] meets or exceeds -0.2. Criterion met

Entry "UAUUUGCCUAUAGAUA" : is its pull-down binding Z-score no less than -0.2? Criterion met

pull-down binding Z-score >= -0.2 for GCUUGCUGUACAUAACUCAAUAGCCGGAAGC [hsa-mir-129-2] ? Criterion not met

Does the sequence CGGGGCGGACGCAGAGCCGCGUUUAGUCUAUCG [hsa-mir-639] have recorded pull-down binding Z-score that is -0.2 or more? Criterion met

Does the sequence ACGCGCUGUGACACUUCAAACUCGU [hsa-mir-126] have recorded pull-down binding Z-score that is -0.2 or more? Criterion met

Quick check, pull-down binding Z-score >= -0.2? "CGUGGUAUUCUUGCUAGUUACACUAGCCAUCCUUACUGCG" Criterion not met

Decide: pull-down binding Z-score of GUGUCUGGAGACGCCAGGCAGC [hsa-mir-4323] >= -0.2? Criterion not met

Reported pull-down binding Z-score reaches at least -0.2 for UGUUGGCAGCCCAAGAUGACA [hsa-mir-4686] ? Criterion met

Quick check, pull-down binding Z-score >= -0.2? "CGCAGGGAAUGGAUAAUCUUGCCUGCG" Criterion met

In plain terms: is recorded pull-down binding Z-score at least -0.2 for CUCUCCUGACCAGCUGAGCUGGAGGAGAG [hsa-mir-3160-2] ? Criterion not met

Quick check: does UGCCUUGUAGCAUUCAGGUCAAGCA [hsa-mir-103a-2] have pull-down binding Z-score greater than or equal to -0.2? Criterion not met

###

test system: TO-3-N3-2 (biotin conjugate); test: pull-down binding Z-score (relative to library population); higher = stronger binding; conditions: RNA library: Library-2
PARAMETER: pull-down binding Z-score
Lab note: record just the number, no unit beside it.

Form: sequence = ACGAGAGUGAGUAGCAGGUCUC [hsa-mir-128-2] ; pull-down binding Z-score = 0.361

# pull-down binding Z-score (sequence: ACACUGGGCUGCCCCCACUGCCCAGUGC [hsa-mir-4277] ) is -0.357

Per the records, this sequence ( "GGUGGUAUUGUAGCUAUCGUAGUAACAUGCCUUGCC" ) has pull-down binding Z-score equal to -0.0179

What the record says about GCAAUCAGGACUGGGUCAUUC [hsa-mir-6873] : pull-down binding Z-score is 0.166

The reported pull-down binding Z-score of the sequence GGUGACAACAACC [IAV_invivo_M1_M2_7_Motif_11+IAV_invivo_M1_M2_7_Motif_11] was -0.31

pull-down binding Z-score for CCUUCUGCUUACAGGUAUUGGAAGG [hsa-mir-3158-1] is -0.401

The sequence listed as UAGGCUGUUUCCAUCUGUGAGGCCUA [hsa-mir-26a-2] has a reported pull-down binding Z-score of -0.375

For record UGAAUUGAAAUGCGUUACAUUCA [hsa-mir-95] the listed pull-down binding Z-score is -0.0666

Looking up GGUAAAAUUGUUAAUAAUUGGUUGAAGCAGUUAAUUAAAGUUACACUUGUGUUCCUUUUUGUUGCUGCUAUUUUCUAUUUAAUAACACC [DMSMaPseq_invitro_SARS-CoV-2_Motif_156] , I found its pull-down binding Z-score recorded as -0.271

Measured pull-down binding Z-score, GCUGCAGAUCUUUGUCUAAGCAGC [hsa-mir-4498] : -0.207

Notebook: GGCGCACAGCAGACCCUGCAAUCAUGCC [hsa-mir-3164] , pull-down binding Z-score read as 0.119

So, "AGUCCCUGUUGCUAUUCAUGCAGAUCAACUUACUCCUACUUGGCGUGUUUAUUCUACAGGUUCUAAUGUUUUUCAAACACGUGCAGGCUGUUUAAUAGGGGCU" ? Its pull-down binding Z-score was -0.638

// sample UCUGUUGCUUGAAAGAAGAGA [hsa-mir-526a-1] , its pull-down binding Z-score was -0.154

Form: sequence = UUGAGGAGAGCACCACAGUGGUCAUCACACAG [hsa-mir-622] ; pull-down binding Z-score = 0.109

So, UAAUAUGCACUAUAAAUAUAUUG [hsa-mir-450a-1] ? Its pull-down binding Z-score was -0.431

Looking up UUUGUGGGGCGAGGAGGGACCUGUACUAGCCAUGGUUCUGAUCACAUAUG [hsa-mir-6834] , I see its pull-down binding Z-score listed as 2.72

For this sequence ( UUCUGCUGAAGACUGGUCUCUUCAUGUGUGAG [hsa-mir-6133] ), measured pull-down binding Z-score is -0.0941

For UGCCAUUACUCUCAGUGGCA [hsa-mir-548y] the sequence record lists pull-down binding Z-score as -0.564

Input CAGGGAACUUUAAAACC [hsa-mir-4324] . Output pull-down binding Z-score: 0.387

The sequence "GACAAUGUCUUAUCUACUUUUAUUUCAGCAGCUCGGCAAGGGUUUGUUGAUUCAGAUGUAGAAACUAAAGAUGUUGUU" showed pull-down binding Z-score equal to -0.111

Please fill in: pull-down binding Z-score reported for UUUGUACGGCACUGUGGCCACGUCCAAA [hsa-mir-497] = -0.306

Form: sequence = AAGUUUGUUCGCAUUCAACCAGGACAGACUU [DMSMaPseq_invitro_SARS-CoV-2_Motif_187] ; pull-down binding Z-score = 0.0441

The sequence listed as UGGUACUGAAGAUGAUUACCA [SHAPE_invitro_SARS-CoV-2_Motif_57] has a reported pull-down binding Z-score of 0.306

pull-down binding Z-score reported for this sequence UUCUCUUUAUUUAUGAUGAA [hsa-mir-494] : -0.639

AAGGUACAGCAGAUACUUACCUG [U1snRNP5ss-22] has a reported pull-down binding Z-score of 0.198

# sequence AGAUGAGGGUGUCGGAUCAACU [hsa-mir-193a] ; its pull-down binding Z-score = 0.248

Value of measured pull-down binding Z-score for the entry CUGUGCUGUCUCUGAGCACCG [hsa-mir-6827] : -0.348

Record "UAGUGCAAAGAAUAGAGCUCGCACCGUAGCUGGUGUCUCUAUCUGUAGUACUA" . Reported pull-down binding Z-score: 0.188

Lookup result for "UGGGUUAUCUUCAACCUA" ; measured pull-down binding Z-score: -0.424

According to the records, this sequence GCCAGUGUUCAAGGGCCCCUCCUCUAGUACUCCCUGUUUGUGUUCUGCCACUGA [hsa-mir-6857] displays pull-down binding Z-score of 0.527

// field: pull-down binding Z-score; key: GCCGGAUCAGACCGAGUGAUGGUAUCACCACUGGC [IAV_invivo_PB2_1_Motif_5+IAV_invivo_PB2_1_Motif_5] ; value = -0.146

pull-down binding Z-score reading for "GUUCUUCUUCGUAAGAAC" : -0.206

response.value for GGCAGGAGGCAGUGAAGUAACUUGC [hsa-mir-3934] (field: pull-down binding Z-score) = 0.583

Sure, the documented pull-down binding Z-score for "UAAUCAGACAAGGAACUGAUUA" is -0.537

Summary for this sequence, GGAGGCACUGCCAGGGCUGCCCAC [hsa-mir-1202] : pull-down binding Z-score is 0.277

The sequence identified as ACAGGUAGUGGCCACAGUGAGAAAGCUGGCCUGUCCUUCUGC [hsa-mir-4314] registered its pull-down binding Z-score at 0.0324

Per the records, this sequence ( CGGAUCUCGAGGGUGCUUAUUGUUCGGUCCG [hsa-mir-615] ) has pull-down binding Z-score equal to 0.219

Lab note: measured pull-down binding Z-score of UCCGUAAGUAGGAUACUUACCUG [U1snRNP5ss-21] was -0.419

get_value(item= CUUUCUGUUGUCUGAGAGAAAAGAAAG [hsa-mir-520a] , readout=pull-down binding Z-score) returns -0.385

Noted for UCCUCCAUGCUUGGAAAAUGCAGGGAGGA [hsa-mir-764] : its pull-down binding Z-score reads -0.61

Per the records, this sequence ( "AACUGGUAAUACACUUCAGUGUAUAAUGCUAGUU" ) has pull-down binding Z-score equal to -0.418

Just so you know, measured pull-down binding Z-score for CCCAAGCAGGCUUUGUGUGAGCAGUGAGGCUAUUUAUUCACUUGGGUGCGAGCUCACACGAAGCCUGCUUGGG [hsa-mir-6839] came out at 0.815
